Taken from paper PMC4599074.

Target sequence: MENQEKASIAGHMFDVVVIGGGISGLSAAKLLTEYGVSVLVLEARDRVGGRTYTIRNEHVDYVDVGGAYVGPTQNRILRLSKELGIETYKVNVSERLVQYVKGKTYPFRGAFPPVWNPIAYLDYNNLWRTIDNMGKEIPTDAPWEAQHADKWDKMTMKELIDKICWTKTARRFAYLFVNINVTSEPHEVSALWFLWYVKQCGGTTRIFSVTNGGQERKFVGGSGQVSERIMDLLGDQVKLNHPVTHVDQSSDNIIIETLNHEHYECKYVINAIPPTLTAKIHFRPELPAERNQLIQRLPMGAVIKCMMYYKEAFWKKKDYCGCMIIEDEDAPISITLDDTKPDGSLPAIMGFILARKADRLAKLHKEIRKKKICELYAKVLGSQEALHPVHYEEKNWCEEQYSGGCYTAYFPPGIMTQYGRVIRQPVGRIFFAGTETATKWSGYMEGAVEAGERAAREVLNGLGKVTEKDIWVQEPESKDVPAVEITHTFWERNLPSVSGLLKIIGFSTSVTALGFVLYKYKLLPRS
parameter.measured: IC50 (µM)
Answer in µM, number only, no unit symbol.

Please review the following examples before continuing.
[[record]]
smiles = "O=C1COc2cc(OCc3cccc(Br)c3)ccc21"
parameter_measured = "IC50"
experimental_result = 3.92

[[record]]
smiles = "O=C1COc2cc(OCc3ccc(Cl)cc3)ccc21"
parameter_measured = "IC50"
experimental_result = 2.19

[[record]]
smiles = "Cc1cccc(COc2ccc3c(c2)OCC3=O)c1"
parameter_measured = "IC50"
experimental_result = 62

[[record]]
smiles = "O=C1COc2cc(OCc3cccc(F)c3)ccc21"
parameter_measured = "IC50"
experimental_result = 80.7

[[record]]
smiles = "Cc1ccc(CCOc2ccc3c(c2)OCC3=O)cc1"
parameter_measured = "IC50"
experimental_result = 11.3


Data request: Requested read-out: IC50. Entry: "O=C1COc2cc(OCc3cccc(Cl)c3)ccc21"
Data returned: 18.7

Data request: Requested read-out: IC50. Entry: "O=C1COc2cc(OCCCc3ccccc3)ccc21"
Data returned: 11.8

Data request: Requested read-out: IC50. Entry: "N#Cc1cccc(COc2ccc3c(c2)OCC3=O)c1"
Data returned: 0.586

---

Molecular target: MAO-B (Homo sapiens, UniProt P27338)
Sequence (P27338 whole entry): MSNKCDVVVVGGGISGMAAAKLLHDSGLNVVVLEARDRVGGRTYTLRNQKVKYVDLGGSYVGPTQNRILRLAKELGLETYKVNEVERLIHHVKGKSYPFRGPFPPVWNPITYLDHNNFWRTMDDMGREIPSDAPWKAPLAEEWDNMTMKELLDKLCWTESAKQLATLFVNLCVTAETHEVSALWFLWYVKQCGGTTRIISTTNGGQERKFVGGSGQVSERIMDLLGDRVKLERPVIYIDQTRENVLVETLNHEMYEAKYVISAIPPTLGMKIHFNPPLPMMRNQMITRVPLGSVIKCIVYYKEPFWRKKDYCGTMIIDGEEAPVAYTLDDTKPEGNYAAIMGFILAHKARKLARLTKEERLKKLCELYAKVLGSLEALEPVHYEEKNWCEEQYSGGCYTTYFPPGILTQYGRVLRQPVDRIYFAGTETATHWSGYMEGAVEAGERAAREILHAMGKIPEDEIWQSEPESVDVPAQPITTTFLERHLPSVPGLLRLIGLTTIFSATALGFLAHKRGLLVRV
Conditions: ratio IC50 (MAO-A)/IC50 (MAO-B)
parameter.measured: SI (selectivity index for the MAO-B isoform)

[[record]]
smiles = "O=C1COc2cc(OCc3cccc(I)c3)ccc21"
experimental_result = "1,081"

[[record]]
smiles = "O=C1COc2cc(OCCOc3ccccc3)ccc21"
experimental_result = ">2,000"

[[record]]
smiles = "O=C1COc2cc(OCc3cccc(Cl)c3)ccc21"
experimental_result = "1,558"


Kindly consider the entry below.
Data request: Requested read-out: SI (selectivity index for the MAO-B isoform). Entry: "O=C1COc2cc(OCc3ccc(C(F)(F)F)cc3)ccc21"
Data returned: >2,564
